Source: the supplement of paper PMC6757056

B1: library; a variant is named by its letters at N, in order (parent)
chain: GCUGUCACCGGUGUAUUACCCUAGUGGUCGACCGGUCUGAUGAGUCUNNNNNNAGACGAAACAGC

Variants of: B1
Experiment: FACS-Seq fitted mean relative fluorescence mCherry/BFP with ligand (log10 relative fluorescence); ligand: hypoxanthine (xanthine aptamer); ligand concentration (+) FACS-Seq: 5 mM; higher = higher reporter protein expression
Settings: HEK293T, ligand present: yes
Quantity: FACS-Seq fitted mean (log10)

[[record]]
chain = "GCUGUCACCGGUGUAUUACCCUAGUGGUCGACCGGUCUGAUGAGUCUAGGGGCAGACGAAACAGC [AGGGGC]"
quantity = "FACS-Seq fitted mean (log10)"
measured = 0.741

[[record]]
chain = "GCUGUCACCGGUGUAUUACCCUAGUGGUCGACCGGUCUGAUGAGUCUAUUCGGAGACGAAACAGC [AUUCGG]"
quantity = "FACS-Seq fitted mean (log10)"
measured = 0.625

[[record]]
chain = "GCUGUCACCGGUGUAUUACCCUAGUGGUCGACCGGUCUGAUGAGUCUUCGAAAAGACGAAACAGC [UCGAAA]"
quantity = "FACS-Seq fitted mean (log10)"
measured = 0.395

[[record]]
chain = "GCUGUCACCGGUGUAUUACCCUAGUGGUCGACCGGUCUGAUGAGUCUAUGGUCAGACGAAACAGC [AUGGUC]"
quantity = "FACS-Seq fitted mean (log10)"
measured = 0.685

[[record]]
chain = "GCUGUCACCGGUGUAUUACCCUAGUGGUCGACCGGUCUGAUGAGUCUGCGUAGAGACGAAACAGC [GCGUAG]"
quantity = "FACS-Seq fitted mean (log10)"
measured = 0.539

[[record]]
chain = "GCUGUCACCGGUGUAUUACCCUAGUGGUCGACCGGUCUGAUGAGUCUAGCCAUAGACGAAACAGC [AGCCAU]"
quantity = "FACS-Seq fitted mean (log10)"
measured = 0.15

[[record]]
chain = "GCUGUCACCGGUGUAUUACCCUAGUGGUCGACCGGUCUGAUGAGUCUCAUAAUAGACGAAACAGC [CAUAAU]"
quantity = "FACS-Seq fitted mean (log10)"
measured = 0.559

[[record]]
chain = "GCUGUCACCGGUGUAUUACCCUAGUGGUCGACCGGUCUGAUGAGUCUAACACGAGACGAAACAGC [AACACG]"
quantity = "FACS-Seq fitted mean (log10)"
measured = 0.412

[[record]]
chain = "GCUGUCACCGGUGUAUUACCCUAGUGGUCGACCGGUCUGAUGAGUCUUUCGGUAGACGAAACAGC [UUCGGU]"
quantity = "FACS-Seq fitted mean (log10)"
measured = 0.492

[[record]]
chain = "GCUGUCACCGGUGUAUUACCCUAGUGGUCGACCGGUCUGAUGAGUCUAAGAAGAGACGAAACAGC [AAGAAG]"
quantity = "FACS-Seq fitted mean (log10)"
measured = 0.459

[[record]]
chain = "GCUGUCACCGGUGUAUUACCCUAGUGGUCGACCGGUCUGAUGAGUCUAGCAGAAGACGAAACAGC [AGCAGA]"
quantity = "FACS-Seq fitted mean (log10)"
measured = 0.623

[[record]]
chain = "GCUGUCACCGGUGUAUUACCCUAGUGGUCGACCGGUCUGAUGAGUCUAGGAACAGACGAAACAGC [AGGAAC]"
quantity = "FACS-Seq fitted mean (log10)"
measured = 0.568

[[record]]
chain = "GCUGUCACCGGUGUAUUACCCUAGUGGUCGACCGGUCUGAUGAGUCUAACCGAAGACGAAACAGC [AACCGA]"
quantity = "FACS-Seq fitted mean (log10)"
measured = 0.533

[[record]]
chain = "GCUGUCACCGGUGUAUUACCCUAGUGGUCGACCGGUCUGAUGAGUCUCAGCGUAGACGAAACAGC [CAGCGU]"
quantity = "FACS-Seq fitted mean (log10)"
measured = -0.185

[[record]]
chain = "GCUGUCACCGGUGUAUUACCCUAGUGGUCGACCGGUCUGAUGAGUCUACUACGAGACGAAACAGC [ACUACG]"
quantity = "FACS-Seq fitted mean (log10)"
measured = 0.666

[[record]]
chain = "GCUGUCACCGGUGUAUUACCCUAGUGGUCGACCGGUCUGAUGAGUCUGUCUAAAGACGAAACAGC [GUCUAA]"
quantity = "FACS-Seq fitted mean (log10)"
measured = 0.458

[[record]]
chain = "GCUGUCACCGGUGUAUUACCCUAGUGGUCGACCGGUCUGAUGAGUCUACGUGGAGACGAAACAGC [ACGUGG]"
quantity = "FACS-Seq fitted mean (log10)"
measured = 0.697

[[record]]
chain = "GCUGUCACCGGUGUAUUACCCUAGUGGUCGACCGGUCUGAUGAGUCUUACUCAAGACGAAACAGC [UACUCA]"
quantity = "FACS-Seq fitted mean (log10)"
measured = 0.0228

[[record]]
chain = "GCUGUCACCGGUGUAUUACCCUAGUGGUCGACCGGUCUGAUGAGUCUGCCGAAAGACGAAACAGC [GCCGAA]"
quantity = "FACS-Seq fitted mean (log10)"
measured = 0.445

[[record]]
chain = "GCUGUCACCGGUGUAUUACCCUAGUGGUCGACCGGUCUGAUGAGUCUGAAGCAAGACGAAACAGC [GAAGCA]"
quantity = "FACS-Seq fitted mean (log10)"
measured = 0.779

[[record]]
chain = "GCUGUCACCGGUGUAUUACCCUAGUGGUCGACCGGUCUGAUGAGUCUGAAAGGAGACGAAACAGC [GAAAGG]"
quantity = "FACS-Seq fitted mean (log10)"
measured = 0.614

[[record]]
chain = "GCUGUCACCGGUGUAUUACCCUAGUGGUCGACCGGUCUGAUGAGUCUUGCAGAAGACGAAACAGC [UGCAGA]"
quantity = "FACS-Seq fitted mean (log10)"
measured = 0.402

[[record]]
chain = "GCUGUCACCGGUGUAUUACCCUAGUGGUCGACCGGUCUGAUGAGUCUCCGGAGAGACGAAACAGC [CCGGAG]"
quantity = "FACS-Seq fitted mean (log10)"
measured = 0.573

[[record]]
chain = "GCUGUCACCGGUGUAUUACCCUAGUGGUCGACCGGUCUGAUGAGUCUAUGCAAAGACGAAACAGC [AUGCAA]"
quantity = "FACS-Seq fitted mean (log10)"
measured = 0.221

[[record]]
chain = "GCUGUCACCGGUGUAUUACCCUAGUGGUCGACCGGUCUGAUGAGUCUCACUUUAGACGAAACAGC [CACUUU]"
quantity = "FACS-Seq fitted mean (log10)"
measured = 0.491

[[record]]
chain = "GCUGUCACCGGUGUAUUACCCUAGUGGUCGACCGGUCUGAUGAGUCUCCCUCUAGACGAAACAGC [CCCUCU]"
quantity = "FACS-Seq fitted mean (log10)"
measured = 0.481

[[record]]
chain = "GCUGUCACCGGUGUAUUACCCUAGUGGUCGACCGGUCUGAUGAGUCUUCCGUGAGACGAAACAGC [UCCGUG]"
quantity = "FACS-Seq fitted mean (log10)"
measured = 0.508

[[record]]
chain = "GCUGUCACCGGUGUAUUACCCUAGUGGUCGACCGGUCUGAUGAGUCUGUAUACAGACGAAACAGC [GUAUAC]"
quantity = "FACS-Seq fitted mean (log10)"
measured = 0.251

[[record]]
chain = "GCUGUCACCGGUGUAUUACCCUAGUGGUCGACCGGUCUGAUGAGUCUCAACGCAGACGAAACAGC [CAACGC]"
quantity = "FACS-Seq fitted mean (log10)"
measured = 0.326

[[record]]
chain = "GCUGUCACCGGUGUAUUACCCUAGUGGUCGACCGGUCUGAUGAGUCUCUAUGGAGACGAAACAGC [CUAUGG]"
quantity = "FACS-Seq fitted mean (log10)"
measured = 0.234

[[record]]
chain = "GCUGUCACCGGUGUAUUACCCUAGUGGUCGACCGGUCUGAUGAGUCUAGGGAGAGACGAAACAGC [AGGGAG]"
quantity = "FACS-Seq fitted mean (log10)"
measured = 0.0991

[[record]]
chain = "GCUGUCACCGGUGUAUUACCCUAGUGGUCGACCGGUCUGAUGAGUCUGAAAAUAGACGAAACAGC [GAAAAU]"
quantity = "FACS-Seq fitted mean (log10)"
measured = 0.532

[[record]]
chain = "GCUGUCACCGGUGUAUUACCCUAGUGGUCGACCGGUCUGAUGAGUCUGGAAUUAGACGAAACAGC [GGAAUU]"
quantity = "FACS-Seq fitted mean (log10)"
measured = 0.815

[[record]]
chain = "GCUGUCACCGGUGUAUUACCCUAGUGGUCGACCGGUCUGAUGAGUCUGAGCGAAGACGAAACAGC [GAGCGA]"
quantity = "FACS-Seq fitted mean (log10)"
measured = 0.54

[[record]]
chain = "GCUGUCACCGGUGUAUUACCCUAGUGGUCGACCGGUCUGAUGAGUCUCUCUGCAGACGAAACAGC [CUCUGC]"
quantity = "FACS-Seq fitted mean (log10)"
measured = -0.335

[[record]]
chain = "GCUGUCACCGGUGUAUUACCCUAGUGGUCGACCGGUCUGAUGAGUCUUGCGUAAGACGAAACAGC [UGCGUA]"
quantity = "FACS-Seq fitted mean (log10)"
measured = 0.413

[[record]]
chain = "GCUGUCACCGGUGUAUUACCCUAGUGGUCGACCGGUCUGAUGAGUCUCGUUUCAGACGAAACAGC [CGUUUC]"
quantity = "FACS-Seq fitted mean (log10)"
measured = 0.812

